Please respond with reported pEC50 for every item in the list.
assay-system: T1, Cynomolgus SLC34A2 (Cynomolgus, UniProt A0A2K5UHY1 1-690)
T1 construct: whole, on cells; also called Cyno SLC34A2
T1 sequence: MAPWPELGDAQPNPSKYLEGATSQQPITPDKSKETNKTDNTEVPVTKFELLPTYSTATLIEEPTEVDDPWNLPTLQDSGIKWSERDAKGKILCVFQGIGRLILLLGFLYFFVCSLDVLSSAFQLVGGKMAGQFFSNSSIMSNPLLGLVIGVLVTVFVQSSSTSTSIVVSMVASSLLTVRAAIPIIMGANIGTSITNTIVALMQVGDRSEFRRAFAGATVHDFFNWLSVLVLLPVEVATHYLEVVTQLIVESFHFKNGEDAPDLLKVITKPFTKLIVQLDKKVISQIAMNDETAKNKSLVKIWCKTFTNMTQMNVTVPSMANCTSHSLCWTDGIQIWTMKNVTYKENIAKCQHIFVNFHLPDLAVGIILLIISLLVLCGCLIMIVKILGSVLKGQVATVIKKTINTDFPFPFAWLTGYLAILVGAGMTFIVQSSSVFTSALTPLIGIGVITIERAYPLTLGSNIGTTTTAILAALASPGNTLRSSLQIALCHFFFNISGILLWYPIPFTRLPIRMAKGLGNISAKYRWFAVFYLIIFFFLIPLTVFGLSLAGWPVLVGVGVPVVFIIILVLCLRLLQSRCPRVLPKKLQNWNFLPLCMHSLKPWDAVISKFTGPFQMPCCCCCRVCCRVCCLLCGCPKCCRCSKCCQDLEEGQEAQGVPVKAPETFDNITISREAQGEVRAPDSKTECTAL
assay-text: FACS, cells expressing Cynomolgus SLC34A2
One number for each entry, as −log10 of the molar value.

xi90G10H7 hIgG1 (antibody, V domains shown, chimeric, hIgG1) VH: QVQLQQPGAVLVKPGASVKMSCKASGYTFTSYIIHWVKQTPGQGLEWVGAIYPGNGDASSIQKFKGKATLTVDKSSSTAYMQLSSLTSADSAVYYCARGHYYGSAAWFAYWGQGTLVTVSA VL: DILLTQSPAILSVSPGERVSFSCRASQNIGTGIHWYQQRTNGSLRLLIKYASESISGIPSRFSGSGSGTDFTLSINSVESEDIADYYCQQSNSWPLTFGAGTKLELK :: 8.62

Attention now turns to another entry.
Query block: Quick one: pEC50 for xi63A11D5B4 hIgG1 (antibody, V domains shown, chimeric, hIgG1) VH: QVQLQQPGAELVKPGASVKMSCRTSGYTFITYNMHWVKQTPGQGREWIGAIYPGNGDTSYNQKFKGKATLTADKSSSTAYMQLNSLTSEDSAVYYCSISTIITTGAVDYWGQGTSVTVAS VL: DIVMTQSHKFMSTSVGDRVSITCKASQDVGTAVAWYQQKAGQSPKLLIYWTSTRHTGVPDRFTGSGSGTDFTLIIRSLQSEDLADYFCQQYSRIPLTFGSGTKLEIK ?
Result block: 8.27
